Where do the numbers come from? From ChEMBL document CHEMBL1201862.

# System: CAKI-1
# method description: NCI tumour cell line growth inhibition, 48 h
Active and inactive are the calls of the source. Cut-off read from the data, not from the text of the source: active = GI50 up to about 1.1 µM and inactive = higher.
Just give me one of these, please: active, inactive

C[C@@]1(O)C[C@@H](N2C(=O)O[C@@H](c3ccccc3)[C@H]2c2ccccc2)[C@@H]1COCc1ccccc1
inactive
COc1ccc(N2C(=O)C3c4[nH]c5ccc(F)cc5c4C4CCC(c5ccccc5)CC4C3C2=O)cc1 (stereo not drawn)
inactive
C/C(=N/NC(=O)C[N+](C)(C)C)C(CN(C)C)C(=O)Nc1ccccc1 (stereo not drawn)
inactive
Clc1ccc2c(c1)N(CCCN1CCCC13CCCCC3)c1ccccc1S2
inactive
Nn1c(CCCCCCCCc2nnc(COc3ccc(Cl)cc3)n2N)nnc1COc1ccc(Cl)cc1
inactive
CCC/C(=N/NC(=O)C(N)=O)C(CC)C(=O)CCC(=O)N(Cc1ccccc1)Cc1ccccc1 (stereo not drawn)
inactive
O=C1OC(CCCN2CCCCC2)(c2ccccc2)CC12CCCC2 (stereo not drawn)
inactive
CCOC(=O)C(C)c1nc2ccc(C(F)(F)F)cc2[nH]c1=O (stereo not drawn)
inactive
CN(Cc1cnc2nc(N)nc(N)c2n1)c1ccc(C(=O)NC(CCC(=O)O)C(=O)O)c2ccccc12 (stereo not drawn)
active
CC1=C(/C(C)=N/NS(=O)(=O)c2ccc(C)cc2)Sc2ccccc2N1
inactive

Q: Could you kindly confirm the outcome this assay logged for CC/C(Cl)=N\OC(=O)Nc1ccc(C#N)cc1 ?
Ans: inactive

Q: Entry to check: CN(C(=O)c1ccncc1)c1ccccc1
Ans: inactive

Q: Entry to check: CCOC(=O)N1CCN(c2ccc3ccc(N)nc3n2)CC1
Ans: inactive

----------
# Tested on: EKVX
# method description: NCI tumour cell line growth inhibition, 48 h
Activity calls are given as the source filed them. No stated cut-off is given here; in the data, active = GI50 up to about 1.1 µM and inactive = higher.
Just give me one of these, please: active, inactive

Nc1nc(Cl)c2nnn(CC3CCC(CO)C3)c2n1 (stereo not given)
inactive
COc1cc2oc3ccccc3c(=O)c2cc1CSc1ccccc1N
inactive
CCCCCCc1cc2cc(C(=O)NCc3ccccc3)c(=N)oc2cc1O
inactive

Q: Could you kindly confirm the outcome this assay logged for CCC/C(=N/NC(=O)C(N)=O)C(CC)C(=O)CCC(=O)N(Cc1ccccc1)Cc1ccccc1 (stereo not given) ?
Ans: inactive

Q: Entry to check: O=C1CC(c2cccc(F)c2)Nc2cc3c(cc21)OCO3 (stereo not given)
Ans: active

----------
# Test system: MDA-MB-231
# method description: NCI tumour cell line growth inhibition, 48 h
Calls of active or inactive are those of the source. Cut-off read from the data, not from the text of the source: active = GI50 up to about 1.1 µM and inactive = higher.
# Lookup of reported GI50 keyed by entry

CC(=O)NCC1OC2COC(c3ccccc3)OC2C2N=C(c3ccccc3)OC12 (stereo not drawn)
> 100 µM (inactive)

Q: # query: GI50 of entry CCOC(=O)C1=C(C)N(c2ccc(OC)cc2)C2(O)C=CC(O)=C3C(=O)c4ccccc4C(=O)C312 (stereo not drawn)
Ans: 14.3 µM (inactive)

Q: Entry to check: O=C(Nc1nc(C23CC4CC(CC(C4)C2)C3)cs1)c1cc2cc(Br)cc(Br)c2oc1=O
Ans: 52.6 µM (inactive)

Q: Entry to check: Cc1cccc(/N=N/C(=N\NC(=O)c2cc(Cl)ccc2O)c2ccc(N(CCC#N)CCC#N)cc2C)c1
Ans: 21.2 µM (inactive)

Q: Entry to check: COc1ccc(/N=N/c2c(O)ccc3ccccc23)cc1
Ans: 24.5 µM (inactive)

Q: Entry to check: NC1CCCCC1NCCNC1CCCCC1N (stereo not drawn)
Ans: > 100 µM (inactive)

Q: Entry to check: C=C(Cl)C(Cl)(CBr)CCCC(C)C (stereo not drawn)
Ans: 20.7 µM (inactive)

Q: Entry to check: C[C@@]1(O)C[C@@H](N2C(=O)O[C@@H](c3ccccc3)[C@H]2c2ccccc2)[C@@H]1COCc1ccccc1
Ans: 15.5 µM (inactive)
